target: Poly [ADP-ribose] polymerase tankyrase-2 (Homo sapiens)
Sequence (Q9H2K2 whole entry): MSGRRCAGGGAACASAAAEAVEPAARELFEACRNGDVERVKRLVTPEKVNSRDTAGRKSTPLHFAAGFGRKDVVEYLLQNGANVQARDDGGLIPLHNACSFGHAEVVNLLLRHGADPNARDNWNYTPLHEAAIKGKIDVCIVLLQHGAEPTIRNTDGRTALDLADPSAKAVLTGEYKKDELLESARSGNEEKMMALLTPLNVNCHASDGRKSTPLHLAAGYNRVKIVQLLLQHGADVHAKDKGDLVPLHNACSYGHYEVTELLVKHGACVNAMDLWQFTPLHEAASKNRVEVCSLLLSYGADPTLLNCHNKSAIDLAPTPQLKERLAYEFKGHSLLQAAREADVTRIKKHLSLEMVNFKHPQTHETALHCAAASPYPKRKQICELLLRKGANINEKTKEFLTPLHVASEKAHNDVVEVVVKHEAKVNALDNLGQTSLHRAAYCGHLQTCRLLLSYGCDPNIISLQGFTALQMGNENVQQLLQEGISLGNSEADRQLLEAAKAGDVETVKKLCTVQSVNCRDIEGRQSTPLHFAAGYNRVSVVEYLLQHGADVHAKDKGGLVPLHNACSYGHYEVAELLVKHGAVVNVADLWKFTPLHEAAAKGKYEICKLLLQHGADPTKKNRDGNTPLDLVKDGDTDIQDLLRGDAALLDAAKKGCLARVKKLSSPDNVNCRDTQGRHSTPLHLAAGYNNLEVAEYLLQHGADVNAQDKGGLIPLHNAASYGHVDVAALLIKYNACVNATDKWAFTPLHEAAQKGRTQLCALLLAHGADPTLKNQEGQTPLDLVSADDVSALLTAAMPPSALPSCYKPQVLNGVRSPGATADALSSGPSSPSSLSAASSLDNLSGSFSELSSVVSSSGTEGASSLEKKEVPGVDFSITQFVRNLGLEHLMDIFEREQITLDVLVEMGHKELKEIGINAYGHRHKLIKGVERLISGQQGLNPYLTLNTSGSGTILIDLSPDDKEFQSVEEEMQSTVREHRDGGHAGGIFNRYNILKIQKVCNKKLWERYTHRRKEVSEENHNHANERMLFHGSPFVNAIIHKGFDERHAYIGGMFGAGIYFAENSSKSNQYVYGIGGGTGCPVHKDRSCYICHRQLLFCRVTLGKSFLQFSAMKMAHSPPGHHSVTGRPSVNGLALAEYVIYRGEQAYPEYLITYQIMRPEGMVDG
pIC50: −log10 of the molar value.
MEASURED QUANTITY: pIC50

| COMPOUND | ASSAYED TARGET | INEQUALITY SYMBOL | EXPERIMENTAL VALUE |
| --- | --- | --- | --- |
| CN1c2ncccc2C(=O)NC1c1ccc(NC(=O)C2CCOCC2)cc1 (centres undefined) | Poly [ADP-ribose] polymerase tankyrase-2 (Homo sapiens) | = | 5.18 |
| O=C1NC(c2ccccc2Cl)Nc2ccccc21 (centres undefined) | Poly [ADP-ribose] polymerase tankyrase-2 (Homo sapiens) | = | 4.51 |
| O=C1NC(c2ccccc2Cl)Nc2ncccc21 (centres undefined) | Poly [ADP-ribose] polymerase tankyrase-2 (Homo sapiens) | = | 3.85 |
| O=c1[nH]c(N2CCNCC2)nc2c1CCO2 | Poly [ADP-ribose] polymerase tankyrase-2 (Homo sapiens) | < | 4.00 |

====

target: Protein mono-ADP-ribosyltransferase PARP4 (Homo sapiens, UniProt Q9UKK3); experiment: Inhibition of human ARTD4 (250 to 565) using 500 nM NAD substrate after 2.5 hrs incubation
Sequence (Q9UKK3 whole entry): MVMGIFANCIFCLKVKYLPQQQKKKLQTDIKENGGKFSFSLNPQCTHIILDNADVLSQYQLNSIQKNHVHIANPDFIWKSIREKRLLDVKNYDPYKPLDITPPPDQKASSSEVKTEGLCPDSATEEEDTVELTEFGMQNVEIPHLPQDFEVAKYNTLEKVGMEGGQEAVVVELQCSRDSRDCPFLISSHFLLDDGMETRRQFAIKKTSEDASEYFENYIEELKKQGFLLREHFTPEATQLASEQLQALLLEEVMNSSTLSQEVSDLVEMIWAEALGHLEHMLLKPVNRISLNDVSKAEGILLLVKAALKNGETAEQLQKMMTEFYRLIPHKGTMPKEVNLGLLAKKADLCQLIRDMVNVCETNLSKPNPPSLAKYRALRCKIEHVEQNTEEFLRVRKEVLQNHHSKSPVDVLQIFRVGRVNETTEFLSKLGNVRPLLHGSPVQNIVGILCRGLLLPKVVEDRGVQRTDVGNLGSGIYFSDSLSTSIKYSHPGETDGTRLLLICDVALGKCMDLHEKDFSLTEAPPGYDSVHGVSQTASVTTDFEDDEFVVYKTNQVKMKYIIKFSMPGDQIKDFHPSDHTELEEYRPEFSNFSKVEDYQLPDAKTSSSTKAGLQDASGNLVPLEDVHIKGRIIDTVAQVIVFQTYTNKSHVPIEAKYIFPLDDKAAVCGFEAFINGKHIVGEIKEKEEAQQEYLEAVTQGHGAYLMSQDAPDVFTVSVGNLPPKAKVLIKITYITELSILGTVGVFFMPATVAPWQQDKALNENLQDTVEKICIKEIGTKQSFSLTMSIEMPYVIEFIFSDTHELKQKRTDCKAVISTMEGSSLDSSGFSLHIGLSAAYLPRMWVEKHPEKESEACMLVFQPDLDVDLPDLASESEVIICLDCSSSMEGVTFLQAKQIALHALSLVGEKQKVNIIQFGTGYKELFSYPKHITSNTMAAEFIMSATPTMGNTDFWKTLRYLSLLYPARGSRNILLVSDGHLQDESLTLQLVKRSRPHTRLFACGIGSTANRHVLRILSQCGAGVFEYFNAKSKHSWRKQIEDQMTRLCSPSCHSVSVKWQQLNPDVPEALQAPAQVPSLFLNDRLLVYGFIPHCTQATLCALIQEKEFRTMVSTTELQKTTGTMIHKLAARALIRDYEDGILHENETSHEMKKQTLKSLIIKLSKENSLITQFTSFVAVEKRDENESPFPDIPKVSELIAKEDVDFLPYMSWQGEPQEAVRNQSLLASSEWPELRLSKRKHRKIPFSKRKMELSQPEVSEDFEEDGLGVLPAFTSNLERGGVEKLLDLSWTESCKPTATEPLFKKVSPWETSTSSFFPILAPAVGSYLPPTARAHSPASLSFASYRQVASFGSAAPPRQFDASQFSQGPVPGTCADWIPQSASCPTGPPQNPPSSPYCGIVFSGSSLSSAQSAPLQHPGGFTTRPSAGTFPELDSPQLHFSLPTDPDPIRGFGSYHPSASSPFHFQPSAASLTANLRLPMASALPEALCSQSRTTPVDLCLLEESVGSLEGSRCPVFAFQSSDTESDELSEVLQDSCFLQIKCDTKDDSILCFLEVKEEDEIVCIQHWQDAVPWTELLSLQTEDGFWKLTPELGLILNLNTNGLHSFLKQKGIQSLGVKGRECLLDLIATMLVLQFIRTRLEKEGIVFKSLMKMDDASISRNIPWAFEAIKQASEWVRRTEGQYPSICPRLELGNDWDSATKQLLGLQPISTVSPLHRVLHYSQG
pIC50: −log10 of the molar value.

| MOLECULE | INEQUALITY SYMBOL | pIC50 |
| --- | --- | --- |
| CC(C)(C)c1ccc(C2NC(=O)c3ccccc3N2)cc1 (configuration not stated) | < | 4.00 |
| CN1CCN(c2nc3c(c(=O)[nH]2)CCCC3)CC1 | = | 4.77 |

====

Target: UniProt Q9Y6F1
Sequence (Q9Y6F1 whole entry): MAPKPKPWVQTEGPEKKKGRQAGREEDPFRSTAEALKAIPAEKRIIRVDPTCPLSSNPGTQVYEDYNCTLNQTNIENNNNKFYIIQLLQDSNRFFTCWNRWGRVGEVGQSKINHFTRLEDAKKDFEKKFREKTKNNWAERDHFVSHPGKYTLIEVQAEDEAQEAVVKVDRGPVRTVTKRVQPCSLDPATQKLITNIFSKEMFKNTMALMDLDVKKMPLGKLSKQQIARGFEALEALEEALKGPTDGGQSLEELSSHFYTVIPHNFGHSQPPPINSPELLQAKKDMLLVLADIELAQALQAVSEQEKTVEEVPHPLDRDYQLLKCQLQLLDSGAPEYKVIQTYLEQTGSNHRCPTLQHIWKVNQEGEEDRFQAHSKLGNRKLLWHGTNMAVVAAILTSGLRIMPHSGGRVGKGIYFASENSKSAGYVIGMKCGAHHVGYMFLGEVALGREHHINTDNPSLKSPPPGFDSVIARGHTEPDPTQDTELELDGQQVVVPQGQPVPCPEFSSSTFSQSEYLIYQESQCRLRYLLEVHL
pIC50: −log10 of the molar value.

| COMPOUND | pIC50 |
| --- | --- |
| CC(C)c1ccc(C2NC(=O)c3ccccc3N2)cc1 (stereo unspecified) | 4.30 |

====

target: Protein mono-ADP-ribosyltransferase PARP10 (Homo sapiens, UniProt Q53GL7); test: Inhibition of human ARTD10 (809 to 1017) using 500 nM NAD substrate at 10 uM after 2.5 hrs incubation
Sequence (Q53GL7 whole entry): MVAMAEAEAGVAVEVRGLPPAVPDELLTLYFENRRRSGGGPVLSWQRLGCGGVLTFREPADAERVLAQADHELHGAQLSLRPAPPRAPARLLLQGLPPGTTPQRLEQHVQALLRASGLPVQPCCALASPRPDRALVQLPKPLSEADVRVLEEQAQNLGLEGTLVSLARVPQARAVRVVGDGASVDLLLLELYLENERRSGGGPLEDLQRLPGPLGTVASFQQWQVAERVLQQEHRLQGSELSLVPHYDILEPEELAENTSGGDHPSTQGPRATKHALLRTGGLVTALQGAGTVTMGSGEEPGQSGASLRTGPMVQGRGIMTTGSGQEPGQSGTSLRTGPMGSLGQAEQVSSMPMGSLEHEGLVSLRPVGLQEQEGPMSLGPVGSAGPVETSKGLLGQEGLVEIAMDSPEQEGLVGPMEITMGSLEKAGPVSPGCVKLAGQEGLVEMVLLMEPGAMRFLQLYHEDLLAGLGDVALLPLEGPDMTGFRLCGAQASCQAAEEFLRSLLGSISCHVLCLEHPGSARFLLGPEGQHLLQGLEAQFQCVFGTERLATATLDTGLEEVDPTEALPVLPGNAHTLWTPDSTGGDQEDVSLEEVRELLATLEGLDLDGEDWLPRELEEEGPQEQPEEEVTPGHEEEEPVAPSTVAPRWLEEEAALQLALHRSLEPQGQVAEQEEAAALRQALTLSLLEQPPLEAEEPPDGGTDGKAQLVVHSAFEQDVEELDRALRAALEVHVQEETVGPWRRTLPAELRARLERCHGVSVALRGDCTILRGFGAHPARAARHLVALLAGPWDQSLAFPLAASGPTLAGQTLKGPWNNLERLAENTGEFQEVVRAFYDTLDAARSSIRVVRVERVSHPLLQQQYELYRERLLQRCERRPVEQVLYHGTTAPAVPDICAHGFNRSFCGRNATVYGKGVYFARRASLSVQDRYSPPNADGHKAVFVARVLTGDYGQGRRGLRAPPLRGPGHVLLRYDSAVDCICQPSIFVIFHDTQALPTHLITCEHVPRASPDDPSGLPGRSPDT

| MOLECULE | ASSAYED TARGET | IC50 |
| --- | --- | --- |
| CC(C)(C)c1ccc(C2NC(=O)c3ccccc3N2)cc1 (configuration not stated) | Protein mono-ADP-ribosyltransferase PARP10 (Homo sapiens, UniProt Q53GL7) | > 10 µM |
| CC(C)c1ccc(C2NC(=O)c3ccccc3N2)cc1 (configuration not stated) | Protein mono-ADP-ribosyltransferase PARP10 (Homo sapiens, UniProt Q53GL7) | > 10 µM |
